study-system: Protease (Human immunodeficiency virus 1, UniProt Q9YQ12)
Sequence (Q9YQ12 whole entry): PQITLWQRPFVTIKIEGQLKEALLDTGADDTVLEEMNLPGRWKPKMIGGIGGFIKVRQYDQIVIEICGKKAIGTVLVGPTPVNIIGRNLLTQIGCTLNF
experimental-readout: pKi
pKi here is simply -log10 of the concentration when that concentration is written in mol/L.

[in] State recorded pKi with Protease (Human immunodeficiency virus 1, UniProt Q9YQ12), entry COc1ccc(S(=O)(=O)N(CC(C)C)C[C@@H](O)[C@H](Cc2ccccc2)n2cc(COC(=O)N[C@H]3c4ccccc4C[C@H]3O)nn2)cc1 , no comment.
[out] 8.57

====

study-system: Protease (Human immunodeficiency virus 1, UniProt Q9YQ12)
experimental-readout: pIC50
pIC50 here is simply -log10 of the concentration when that concentration is written in mol/L.

[in] State recorded pIC50 with Protease (Human immunodeficiency virus 1, UniProt Q9YQ12), entry COc1ccc(S(=O)(=O)N(CC(C)C)C[C@@H](O)[C@H](Cc2ccccc2)n2cc(COC(=O)N[C@H]3c4ccccc4C[C@H]3O)nn2)cc1 , no comment.
[out] 8.22
